The origin of these recorded values is ChEMBL document CHEMBL1133115.

Species on record: Rattus norvegicus
Assay: Bone calcium-mobilizing (BCM) activity at 500 pmol/day/7days in vitamin D deficient rats on a low calcium diet (0.02% Ca)
Assay type: functional
outcome_measure: BCM serum Ca (mg 100ml-1)

>  <molecule>
C=C1/C(=C\C=C2/CCC[C@]3(C)[C@@H]([C@H](C)CCCC(C)(C)O)CC[C@@H]23)C[C@H](O)[C@H](C)[C@H]1O (stereo in doubt; form 2)

>  <prefix_operator>
=

>  <result_value>
3.9

$$$$
>  <molecule>
C=C1/C(=C\C=C2/CCC[C@]3(C)[C@@H]([C@H](C)CCCC(C)(C)O)CC[C@@H]23)C[C@@H](O)[C@@H](C)[C@H]1O (stereo in doubt; form 2)

>  <prefix_operator>
<

>  <result_value>
4.9

$$$$
>  <molecule>
C=C1/C(=C\C=C2/CCC[C@]3(C)[C@@H]([C@@H](C)CCCC(C)(C)O)CC[C@@H]23)C[C@H](O)[C@@H](C)[C@H]1O (stereo in doubt; form 1)

>  <prefix_operator>
=

>  <result_value>
4.4

$$$$
>  <molecule>
C=C1/C(=C\C=C2/CCC[C@]3(C)[C@@H]([C@H](C)CCCC(C)(C)O)CC[C@@H]23)C[C@@H](O)[C@@H](C)[C@@H]1O (stereo in doubt; form 1)

>  <prefix_operator>
=

>  <result_value>
4.4

$$$$
>  <molecule>
C=C1/C(=C\C=C2/CCC[C@]3(C)[C@@H]([C@H](C)CCCC(C)(C)O)CC[C@@H]23)C[C@@H](O)[C@@H](C)[C@@H]1O (stereo in doubt; form 2)

>  <prefix_operator>
<

>  <result_value>
5

$$$$
>  <molecule>
C=C1/C(=C\C=C2/CCC[C@]3(C)[C@@H]([C@H](C)CCCC(C)(C)O)CC[C@@H]23)C[C@@H](O)[C@H](C)[C@H]1O (stereo in doubt; form 2)

>  <prefix_operator>
=

>  <result_value>
4.3

$$$$
>  <molecule>
C=C1/C(=C\C=C2/CCC[C@]3(C)[C@@H]([C@H](C)CCCC(C)(C)O)CC[C@@H]23)C[C@H](O)[C@H](C)[C@H]1O (stereo in doubt; form 1)

>  <prefix_operator>
=

>  <result_value>
4.4

$$$$
>  <molecule>
C=C1/C(=C\C=C2/CCC[C@]3(C)[C@@H]([C@@H](C)CCCC(C)(C)O)CC[C@@H]23)C[C@H](O)[C@@H](C)[C@@H]1O (stereo in doubt; form 2)

>  <prefix_operator>
<

>  <result_value>
5.4

$$$$
>  <molecule>
C=C1/C(=C\C=C2/CCC[C@]3(C)[C@@H]([C@H](C)CCCC(C)(C)O)CC[C@@H]23)C[C@@H](O)[C@@H](C)[C@H]1O (stereo in doubt; form 1)

>  <prefix_operator>
=

>  <result_value>
5

$$$$
>  <molecule>
C=C1/C(=C\C=C2/CCC[C@]3(C)[C@@H]([C@H](C)CCCC(C)(C)O)CC[C@@H]23)C[C@H](O)[C@H](C)[C@@H]1O (stereo in doubt; form 1)

>  <prefix_operator>
=

>  <result_value>
4.1

$$$$
>  <molecule>
C=C1/C(=C\C=C2/CCC[C@]3(C)[C@@H]([C@H](C)CCCC(C)(C)O)CC[C@@H]23)C[C@@H](O)[C@H](C)[C@H]1O (stereo in doubt; form 1)

>  <prefix_operator>
=

>  <result_value>
4.7

$$$$
